The reported measurements were obtained from paper PMC3346935.

system: RNA 8 (RNA, aptamer) GGCAAGUACUCUGACGCAGUGGAAGUUAUGUGUAUGCGGUAGAUAGGUAACGUUCUGUCAUAGGAAGGUACUAUCGUGCGUAGAGGAGGACAGCG; assay: isocratic affinity elution from His–Phe–Sepharose; conditions: 600 mM NaCl, 5 mM MgCl2, 5 mM CaCl2; 50 mM HEPES pH 7.0
Residues, ends and D or L forms follow the SMILES beside them.
Listed next: entries and their corresponding K D.
ASSAY READOUT: K D (mM)

MOLECULE: N[C@@H](Cc1cnc[nH]1)C(=O)N[C@@H](Cc1ccccc1)C(=O)O (H-His-Phe-OH)
OP: =
TEST VALUE: 0.102
--
MOLECULE: N[C@@H](Cc1c[nH]cn1)C(=O)NCC(=O)O (H-His-Gly-OH)
OP: =
TEST VALUE: 5.4
--
MOLECULE: N[C@@H](Cc1ccccc1)C(=O)O
OP: >
TEST VALUE: 34
--
MOLECULE: NCC(=O)N[C@@H](Cc1ccccc1)C(=O)O (H-Gly-Phe-OH)
OP: >
TEST VALUE: 34
--
MOLECULE: N[C@@H](Cc1cnc[nH]1)C(=O)O
OP: >
TEST VALUE: 34
